Test: refractive index (Na D-line) (dimensionless); xn = mol fraction of the nth substance listed
Conditions: 303.15 K; 100 kPa; Liquid; Standard Abbe refractometry; x1 = 0.25
The following molecules are shown together with reported refractive index values.
Give the figure by itself; no unit, no explanation.

Below: 6 molecules and their reported refractive index.
{"columns": ["Molecule", "Recorded Endpoint", "Assay Value"],
 "data": [
  ["CCCC[N+](CCCC)(CCCC)Cc1ccccc1.[Cl-] [benzyltributylammonium chloride] + OCCOCCOCCO", "refractive index", 1.4874],
  ["C[N+](C)(C)Cc1ccccc1.[Cl-] [trimethylbenzylammonium chloride] + OCCOCCO", "refractive index", 1.4897],
  ["C[N+](C)(C)Cc1ccccc1.[Cl-] [trimethylbenzylammonium chloride] + OCCO", "refractive index", 1.4935],
  ["C[N+](C)(C)Cc1ccccc1.[Cl-] [trimethylbenzylammonium chloride] + OCC(O)CO", "refractive index", 1.5078],
  ["CCCC[N+](CCCC)(CCCC)Cc1ccccc1.[Cl-] [benzyltributylammonium chloride] + OCCOCCO", "refractive index", 1.4893],
  ["CCCC[N+](CCCC)(CCCC)Cc1ccccc1.[Cl-] [benzyltributylammonium chloride] + OCC(O)CO", "refractive index", 1.5036]
]}

Record CCCC[N+](CCCC)(CCCC)Cc1ccccc1.[Cl-] [benzyltributylammonium chloride] + OCCO , field refractive index: 1.4932

Sure, the documented refractive index for C[N+](C)(C)Cc1ccccc1.[Cl-] [trimethylbenzylammonium chloride] + OCCOCCOCCO is 1.4865

----------
Assay: xn = mol fraction of the nth substance listed
Details: 343.15 K; 100 kPa; Liquid; Single path-length method; x1 = 0.25
Recorded Endpoint: speed of sound (m/s)
Provide the reading as a plain figure in m/s.

{"columns": ["Compound", "Assay Value"],
 "data": [
  ["C[N+](C)(C)Cc1ccccc1.[Cl-] [trimethylbenzylammonium chloride] + OCCO", 1706.6],
  ["CCCC[N+](CCCC)(CCCC)Cc1ccccc1.[Cl-] [benzyltributylammonium chloride] + OCCOCCOCCO", 1530],
  ["C[N+](C)(C)Cc1ccccc1.[Cl-] [trimethylbenzylammonium chloride] + OCC(O)CO", 1824.2]
]}

Next compound, speed of sound to be filled in.
// C[N+](C)(C)Cc1ccccc1.[Cl-] [trimethylbenzylammonium chloride] + OCCOCCOCCO : speed of sound value = 1606.6

----------
Parameter electrical conductivity: see the listing below.
Test: xn = mol fraction of the nth substance listed
Conditions: 293.15 K; 100 kPa; Liquid; Alternating current cell with electrodes; x1 = 0.25
Field: numeric (S/m). Do not append units.

{"columns": ["Compound", "electrical conductivity [S/m]"],
 "data": [
  ["C[N+](C)(C)Cc1ccccc1.[Cl-] [trimethylbenzylammonium chloride] + OCC(O)CO", 0.027],
  ["CCCC[N+](CCCC)(CCCC)Cc1ccccc1.[Cl-] [benzyltributylammonium chloride] + OCC(O)CO", 0.007],
  ["CCCC[N+](CCCC)(CCCC)Cc1ccccc1.[Cl-] [benzyltributylammonium chloride] + OCCOCCO", 0.032],
  ["CCCC[N+](CCCC)(CCCC)Cc1ccccc1.[Cl-] [benzyltributylammonium chloride] + OCCO", 0.048],
  ["CCCC[N+](CCCC)(CCCC)Cc1ccccc1.[Cl-] [benzyltributylammonium chloride] + OCCOCCOCCO", 0.021]
]}

For C[N+](C)(C)Cc1ccccc1.[Cl-] [trimethylbenzylammonium chloride] + OCCOCCOCCO the compound record lists electrical conductivity as 0.081

Short answer for C[N+](C)(C)Cc1ccccc1.[Cl-] [trimethylbenzylammonium chloride] + OCCOCCO : electrical conductivity was 0.132

Consider C[N+](C)(C)Cc1ccccc1.[Cl-] [trimethylbenzylammonium chloride] + OCCO . Its measured electrical conductivity is 0.391

----------
Experiment: xn = mol fraction of the nth substance listed
Details: 288.15 K; 100 kPa; Liquid; Alternating current cell with electrodes; x1 = 0.25
Binary label based on electrical conductivity with cut-off 0.04 S/m: below gives Satisfied, not below gives Not satisfied.

{"columns": ["Compound", "Group"],
 "data": [
  ["CCCC[N+](CCCC)(CCCC)Cc1ccccc1.[Cl-] [benzyltributylammonium chloride] + OCCOCCOCCO", "Satisfied"],
  ["C[N+](C)(C)Cc1ccccc1.[Cl-] [trimethylbenzylammonium chloride] + OCCOCCO", "Not satisfied"],
  ["C[N+](C)(C)Cc1ccccc1.[Cl-] [trimethylbenzylammonium chloride] + OCC(O)CO", "Satisfied"],
  ["C[N+](C)(C)Cc1ccccc1.[Cl-] [trimethylbenzylammonium chloride] + OCCOCCOCCO", "Not satisfied"],
  ["CCCC[N+](CCCC)(CCCC)Cc1ccccc1.[Cl-] [benzyltributylammonium chloride] + OCC(O)CO", "Satisfied"],
  ["CCCC[N+](CCCC)(CCCC)Cc1ccccc1.[Cl-] [benzyltributylammonium chloride] + OCCOCCO", "Satisfied"]
]}

Attention now turns to another entry.
Ask | Field: below-cutoff. Rule: recorded electrical conductivity strictly less than 0.04 S/m. Subject: C[N+](C)(C)Cc1ccccc1.[Cl-] [trimethylbenzylammonium chloride] + OCCO
Reply | Not satisfied

----------
Assay: refractive index (Na D-line) (dimensionless); xn = mol fraction of the nth substance listed
Details: 343.15 K; 100 kPa; Liquid; Standard Abbe refractometry; x1 = 0.25
Recorded Endpoint: refractive index
A bare number is all that is needed in reply.

See these solved cases before continuing.
{"columns": ["Compound", "refractive index"],
 "data": [
  ["CCCC[N+](CCCC)(CCCC)Cc1ccccc1.[Cl-] [benzyltributylammonium chloride] + OCCO", 1.4809],
  ["C[N+](C)(C)Cc1ccccc1.[Cl-] [trimethylbenzylammonium chloride] + OCCOCCOCCO", 1.4749],
  ["CCCC[N+](CCCC)(CCCC)Cc1ccccc1.[Cl-] [benzyltributylammonium chloride] + OCCOCCO", 1.4776],
  ["C[N+](C)(C)Cc1ccccc1.[Cl-] [trimethylbenzylammonium chloride] + OCC(O)CO", 1.4977]
]}

For C[N+](C)(C)Cc1ccccc1.[Cl-] [trimethylbenzylammonium chloride] + OCCO the compound record lists refractive index as 1.482

Per the records, this compound ( C[N+](C)(C)Cc1ccccc1.[Cl-] [trimethylbenzylammonium chloride] + OCCOCCO ) has refractive index equal to 1.4784

What the record says about CCCC[N+](CCCC)(CCCC)Cc1ccccc1.[Cl-] [benzyltributylammonium chloride] + OCC(O)CO : refractive index is 1.4917

refractive index for CCCC[N+](CCCC)(CCCC)Cc1ccccc1.[Cl-] [benzyltributylammonium chloride] + OCCOCCOCCO is 1.4748

----------
Measured mass density accompanies every entry in the list below.
Experiment: xn = mol fraction of the nth substance listed
Conditions: 303.15 K; 100 kPa; Liquid; Vibrating tube method; x1 = 0.25
Only the number, expressed in kg/m3, is required.

Sure, the documented mass density for C[N+](C)(C)Cc1ccccc1.[Cl-] [trimethylbenzylammonium chloride] + OCCO is 1097.89

Looking up C[N+](C)(C)Cc1ccccc1.[Cl-] [trimethylbenzylammonium chloride] + OCC(O)CO , I see its mass density listed as 1178.99

Entry under test: CCCC[N+](CCCC)(CCCC)Cc1ccccc1.[Cl-] [benzyltributylammonium chloride] + OCCO . Its mass density was 1032.74

Looking up CCCC[N+](CCCC)(CCCC)Cc1ccccc1.[Cl-] [benzyltributylammonium chloride] + OCC(O)CO , I found its mass density recorded as 1099.54

mass density recorded for this compound, CCCC[N+](CCCC)(CCCC)Cc1ccccc1.[Cl-] [benzyltributylammonium chloride] + OCCOCCOCCO , is 1064.81

Item: CCCC[N+](CCCC)(CCCC)Cc1ccccc1.[Cl-] [benzyltributylammonium chloride] + OCCOCCO | mass density: 1051.5

The reported mass density of the compound C[N+](C)(C)Cc1ccccc1.[Cl-] [trimethylbenzylammonium chloride] + OCCOCCO was 1107.46

response.value for C[N+](C)(C)Cc1ccccc1.[Cl-] [trimethylbenzylammonium chloride] + OCCOCCOCCO (field: mass density) = 1113.93

----------
Assay: xn = mol fraction of the nth substance listed
Conditions: 323.15 K; 100 kPa; Liquid; Alternating current cell with electrodes; x1 = 0.25
Recorded Endpoint: electrical conductivity (S/m)
Give the value, in units of S/m, as a plain number.

Here is how some compounds turned out for electrical conductivity.
{"columns": ["Compound", "Assay Value"],
 "data": [
  ["CCCC[N+](CCCC)(CCCC)Cc1ccccc1.[Cl-] [benzyltributylammonium chloride] + OCC(O)CO", 0.047],
  ["C[N+](C)(C)Cc1ccccc1.[Cl-] [trimethylbenzylammonium chloride] + OCC(O)CO", 0.181],
  ["CCCC[N+](CCCC)(CCCC)Cc1ccccc1.[Cl-] [benzyltributylammonium chloride] + OCCO", 0.181],
  ["CCCC[N+](CCCC)(CCCC)Cc1ccccc1.[Cl-] [benzyltributylammonium chloride] + OCCOCCOCCO", 0.082],
  ["C[N+](C)(C)Cc1ccccc1.[Cl-] [trimethylbenzylammonium chloride] + OCCO", 0.997]
]}

electrical conductivity in this record for C[N+](C)(C)Cc1ccccc1.[Cl-] [trimethylbenzylammonium chloride] + OCCOCCO : 0.398

// electrical conductivity lookup, compound = CCCC[N+](CCCC)(CCCC)Cc1ccccc1.[Cl-] [benzyltributylammonium chloride] + OCCOCCO , result: 0.115

// field: electrical conductivity; key: C[N+](C)(C)Cc1ccccc1.[Cl-] [trimethylbenzylammonium chloride] + OCCOCCOCCO ; value = 0.278
